# Test system: C. elegans
# ASSAY_EXPLANATION: microbe, parasite or virus in culture
# DETAILS: Caenorhabditis elegans, 24 h, read-out: Percentage of motility inhibition 24 h, Table S2, C. elegans SS assay, 110 μM, 24 h, averages of 4 data points
Entries and their inhibition at 110 µM values follow.

- COMPOUND: "CC1=C[C@H]2[C@@]3(O)[C@H](C)[C@@H](O)[C@]4(O)[C@H]([C@@H]3C=C(CO)C[C@]2(O)C1=O)C4(C)C"
  inhibition at 110 µM / %: 6
- COMPOUND: "CC(=O)O[C@]12CCC(C)=CC[C@]13CC[C@H]2[C@@](C)(/C=C/C=C(\\C)C(=O)O)OC3=O"
  inhibition at 110 µM / %: 13
- COMPOUND: "N=C(N/N=C/c1ccc(Cl)cc1)N/N=C/c1ccc(Cl)cc1 [Robenidine, reference compound]"
  inhibition at 110 µM / %: 80
- COMPOUND: "COP(=S)(OC)Oc1c(Cl)cc(C)cc1Cl"
  inhibition at 110 µM / %: 20
- COMPOUND: "C=C1C(=O)O[C@@H]2/C=C(\\C)CC/C=C(\\C)CC[C@@H]12 [Costunolide]"
  inhibition at 110 µM / %: 21
- COMPOUND: "C[C@@H]1O[C@@H](O[C@H]2[C@H](O)[C@@H](O)[C@H](OC[C@H]3O[C@@H](OC(=O)[C@]45CCC(C)(C)C[C@H]4C4=CC[C@@H]6[C@@]7(C)C[C@@H](O)[C@H](O)[C@@](C)(CO)[C@@H]7[C@H](O)C[C@@]6(C)[C@]4(C)CC5)[C@H](O)[C@@H](O)[C@@H]3O)O[C@@H]2CO)[C@H](O)[C@H](O)[C@H]1O [Asiaticoside B]"
  inhibition at 110 µM / %: 5
- COMPOUND: "OC[C@@H](O)[C@@H](O)[C@H](O)[C@@H](O)CO"
  inhibition at 110 µM / %: 7
- COMPOUND: "N#C[C@H](O[C@@H]1O[C@H](CO[C@@H]2O[C@H](CO)[C@@H](O)[C@H](O)[C@H]2O)[C@@H](O)[C@H](O)[C@H]1O)c1ccccc1"
  inhibition at 110 µM / %: 0
- COMPOUND: "OC[C@@H](O)[C@H](O)[C@@H](O)CO"
  inhibition at 110 µM / %: 13
- COMPOUND: "C[C@H]1CC[C@]2(NC1)O[C@H]1C[C@H]3[C@@H]4CC[C@H]5C[C@@H](O)CC[C@]5(C)[C@H]4CC[C@]3(C)[C@H]1[C@@H]2C"
  inhibition at 110 µM / %: 0
- COMPOUND: "CC(C)=C/C=C1\\O[C@@H]2CC(C)=CC(=O)[C@@H]2[C@]1(C)O"
  inhibition at 110 µM / %: 13
- COMPOUND: "O=C(Nc1ccc(Oc2ccc(Cl)cc2)c(Cl)c1)c1cc(I)cc(I)c1O [Rafoxanide]"
  inhibition at 110 µM / %: 1
- COMPOUND: "COc1cc(-c2coc3cc4c(c(OC)c3c2=O)OCO4)cc(OC)c1OC"
  inhibition at 110 µM / %: 34
- COMPOUND: "CC(=O)C1=C(O)[C@@H]2[C@H]3c4c[nH]c5cccc(c45)C[C@H]3C(C)(C)N2C1=O"
  inhibition at 110 µM / %: 2
- COMPOUND: "Nc1ccc(S(=O)(=O)Nc2ccc(Cl)nn2)cc1"
  inhibition at 110 µM / %: 0
- COMPOUND: "Cc1onc(-c2ccccc2)c1C(=O)N1CCN(c2ccc([N+](=O)[O-])cc2Cl)CC1"
  inhibition at 110 µM / %: 8
- COMPOUND: "CC1=C(/C=C/C(C)=C/C=C/C(C)=C/C(=O)O)C(C)(C)CCC1"
  inhibition at 110 µM / %: 40
- COMPOUND: "COc1cc2c(cc1O)-c1cc3ccc(OC)c(OC)c3c[n+]1CC2"
  inhibition at 110 µM / %: 0
- COMPOUND: "Oc1c(I)cc(Cl)c2cccnc12"
  inhibition at 110 µM / %: 0

Data origin: paper PMC11855827
